- assay procedure: Inhibition of Cryptosporidium hominis thymidylate synthase
assay readout: Ki (nM)
Could you give me the number in nM? Just the number is fine.

Prompt line: Fill blank: measured Ki of the molecule Cc1[nH]c2nc(N)[nH]c(=O)c2c1Sc1ccc(C(=O)N[C@@H](CCC(=O)O)C(=O)O)c(Cl)c1 is ____.
Response line: 8.83
